The measurements presented in this section are drawn from patent US5304113A.

Experiment: Acute systemic toxicity in mice (intravenous)
Type: in vivo, mouse (BAF1)
Details: mouse, in vivo, iv; read-out: LD10 relative to amount injected with mouse bone marrow graft
readout-name: selectivity ratio

- CCCCN1C(=O)C(=CC=CC=C2Oc3ccccc3N2CCCS(=O)(=O)O)C(=O)N(CCCC)C1=S: > 100000

---

Assay: Acute systemic toxicity in mice (intravenous)
Format: in vivo, mouse (BAF1)
Conditions: in vivo; mouse, intravenous; log probit fit
readout-name: LD50

- CCCCN1C(=O)C(=CC=CC=C2Oc3ccccc3N2CCCS(=O)(=O)O)C(=O)N(CCCC)C1=S: 84 mg/kg
